Where do these numbers come from? They come from patent US20260209325A1.

# reported IC50 (nM) Pro + Furin; entries follow
# target desc: human pro-myostatin (human, UniProt O14793 24-375, biotinylated (in the SPR assay))
# protocol text: cell-based or functional assay
parameter measured: IC50 (nM) Pro + Furin

* Ab107 (antibody, human IgG4 S228P, kappa, V domains shown) VH: EVQLVESGGGLVQPGGSLRLSCAASGSAFSSYGMSWVRQAPGKGLELVASINSNGGSTYYPDSVKGRFTISRDNAKNSLYLQMNSLRAEDTAVYYCARDQLVRFLEWSHYYGMDVWGQGTTVTVSS VL: DIVMTQSPLSLPVTPGEPASISCRSSQSLLHSSGHNFLHWYLQKPGQSPQLLIYAGSNRPSGVPDRFSGSGSGTDFTLKISRVEAEDVGVYYCAHATQLPHTFGGGTKVEIKR | 0.195
* Ab127 (antibody, human IgG4 S228P, kappa, V domains shown) VH: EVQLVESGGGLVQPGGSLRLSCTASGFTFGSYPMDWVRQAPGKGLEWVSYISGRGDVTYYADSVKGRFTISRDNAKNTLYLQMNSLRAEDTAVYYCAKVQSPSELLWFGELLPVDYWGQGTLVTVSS VL: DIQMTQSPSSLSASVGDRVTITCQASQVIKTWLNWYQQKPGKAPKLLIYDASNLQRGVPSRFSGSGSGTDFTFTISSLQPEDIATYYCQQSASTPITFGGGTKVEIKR | 0.195
* Ab115 (antibody, human IgG4 S228P, kappa, V domains shown) VH: QVQLVQSGAEVKKPGASVKVSCKVSGYAFTNYNIHWVRQAPGKGLEWMGGINPRTGGTIYAQKFQGRVTMTEDTSTDTAYMELSSLKSEDTAVYYCAKDIYTGVAVAGSGMDYWGQGTLVTVSS VL: DIQMTQSPSSVSASVGDRVTITCRASQGISTHLAWYQQKPGKAPKLLIYGASNLESGVPSRFSGSGSGTDFTLTISSLQPEDFANYYCQQANSFPWTFGGGTKVEIKR | 6.01
* Ab108 (antibody, human IgG4 S228P, kappa, V domains shown) VH: EVQLVESGGGLVQPGGSLRLSCAASGSAFSSYGMSWVRQAPGKGLELVASINSNGGSTYYPDSVKGRFTISRDNAKNSLYLQMNSLRAEDTAVYYCARDLLVGFLQWSHYYGMDVWGQGTTVTVSS VL: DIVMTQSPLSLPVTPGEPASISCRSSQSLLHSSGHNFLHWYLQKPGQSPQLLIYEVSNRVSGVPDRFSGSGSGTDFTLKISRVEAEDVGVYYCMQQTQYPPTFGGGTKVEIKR | 0.27
* Ab101 (antibody, human IgG4 S228P, kappa, V domains shown) VH: EVQLVESGGGLVQPGGSLRLSCAASGSAFSSYGMSWVRQAPGKGLELVASINSNGGSTYYPDSVKGRFTISRDNAKNSLYLQMNSLRAEDTAVYYCARDLLVRFLEWSHYYGMDVWGQGTTVTVSS VL: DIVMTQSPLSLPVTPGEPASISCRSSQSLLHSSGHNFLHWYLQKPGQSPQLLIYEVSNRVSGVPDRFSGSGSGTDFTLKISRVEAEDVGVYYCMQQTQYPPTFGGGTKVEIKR | 0.251
* Ab123 (antibody, human IgG4 S228P, kappa, V domains shown) VH: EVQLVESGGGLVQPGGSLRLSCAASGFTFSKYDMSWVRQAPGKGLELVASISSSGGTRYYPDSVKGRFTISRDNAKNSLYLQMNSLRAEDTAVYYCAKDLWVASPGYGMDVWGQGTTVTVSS VL: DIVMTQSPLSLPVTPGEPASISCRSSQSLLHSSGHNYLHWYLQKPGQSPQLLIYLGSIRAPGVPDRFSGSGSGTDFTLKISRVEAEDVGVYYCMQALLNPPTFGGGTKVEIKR | 0.184
* Ab112 (antibody, human IgG4 S228P, kappa, V domains shown) VH: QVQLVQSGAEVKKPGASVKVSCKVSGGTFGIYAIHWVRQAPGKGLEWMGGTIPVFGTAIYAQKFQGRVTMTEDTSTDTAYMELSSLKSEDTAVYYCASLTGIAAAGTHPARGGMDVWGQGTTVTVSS VL: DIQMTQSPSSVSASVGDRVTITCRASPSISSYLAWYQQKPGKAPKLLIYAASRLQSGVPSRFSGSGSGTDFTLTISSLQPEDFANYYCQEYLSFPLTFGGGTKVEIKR | 1.08
* Ab128 (antibody, human IgG4 S228P, kappa, V domains shown) VH: EVQLVESGGGLVQPGGSLRLSCTASGFTLSSYSMDWVRQAPGKGLEWVSYITGSGDTTYYADSVKGRFTISRDNAKNTLYLQMNSLRAEDTAVYYCARGFGWISGWAEDYFDYWGQGTLVTVSS VL: DIQMTQSPSSLSASVGDRVTITCQASQSVYSYLNWYQQKPGKAPKLLIYGASRLEGGVPSRFSGSGSGTDFTFTISSLQPEDIATYYCQQHSTDQRTFGGGTKVEIKR | 0.774
